Molecular target: UniProt:P35348
Sequence (P35348 whole entry): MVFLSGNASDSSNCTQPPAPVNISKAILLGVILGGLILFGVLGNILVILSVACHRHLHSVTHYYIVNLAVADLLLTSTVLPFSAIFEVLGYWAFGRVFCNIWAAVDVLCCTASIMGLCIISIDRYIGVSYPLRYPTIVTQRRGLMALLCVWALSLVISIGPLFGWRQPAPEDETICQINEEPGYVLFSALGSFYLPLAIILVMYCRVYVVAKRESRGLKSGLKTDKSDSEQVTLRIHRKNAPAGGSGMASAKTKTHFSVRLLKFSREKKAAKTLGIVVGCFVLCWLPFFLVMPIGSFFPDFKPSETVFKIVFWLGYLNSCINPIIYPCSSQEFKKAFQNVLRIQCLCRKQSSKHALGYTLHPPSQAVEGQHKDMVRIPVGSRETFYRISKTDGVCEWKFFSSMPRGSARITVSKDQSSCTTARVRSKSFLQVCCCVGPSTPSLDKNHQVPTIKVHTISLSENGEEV
Format: functional, cell-based
measured.property: AC50

# molecule, target.or.test.system, AC50
rows = [
    ("N=C(N)NC(=O)c1nc(Cl)c(N)nc1N [AMILORIDE]", "UniProt:P35348", "> 30 µM"),
    ("C[C@@H]1CN(c2c(F)c(N)c3c(=O)c(C(=O)O)cn(C4CC4)c3c2F)C[C@H](C)N1", "UniProt:P35348", "> 30 µM"),
    ("Cc1c(C)c2c(c(C)c1O)CCC(C)(COc1ccc(CC3SC(=O)NC3=O)cc1)O2 (stereo unspecified)", "UniProt:P35348", "3.96 µM"),
    ("O=c1[nH]c2ccccc2n1CCN1CCN(c2cccc(C(F)(F)F)c2)CC1", "UniProt:P35348", "0.391 µM"),
    ("Cc1cccc(C)c1NC(=O)c1cc(S(N)(=O)=O)c(Cl)cc1O [XIPAMIDE]", "UniProt:P35348", "> 30 µM"),
]

Case CN1C(C(=O)Nc2ccccn2)=C(OC(=O)/C=C/c2ccccc2)c2ccccc2S1(=O)=O [PIROXICAM CINNAMATE] , UniProt:P35348, AC50 recorded as > 30 µM

Case CCn1c(=O)c2c(nc(/C=C/c3ccc(OC)c(OC)c3)n2C)n(CC)c1=O , UniProt:P35348, AC50 recorded as > 30 µM

Case CC1=C(C/C=C(\C)CCC[C@H](C)CCC[C@H](C)CCCC(C)C)C(=O)c2ccccc2C1=O , UniProt:P35348, AC50 recorded as > 30 µM

Case COc1cccc2c1C(=O)c1c(O)c3c(c(O)c1C2=O)C[C@@](O)(C(=O)CO)C[C@@H]3O[C@H]1C[C@H](N)[C@H](O)[C@H](C)O1 , UniProt:P35348, AC50 recorded as > 30 µM

Case COc1cc(C[C@@H]2NCCc3cc(O)c(O)cc32)cc(OC)c1OC , UniProt:P35348, AC50 recorded as > 30 µM

###

Some compounds, each annotated with its measured AC50.
Molecular target: Muscarinic acetylcholine receptor M2 (Homo sapiens, UniProt P08172); further: assay procedure not described here
Sequence (P08172 whole entry): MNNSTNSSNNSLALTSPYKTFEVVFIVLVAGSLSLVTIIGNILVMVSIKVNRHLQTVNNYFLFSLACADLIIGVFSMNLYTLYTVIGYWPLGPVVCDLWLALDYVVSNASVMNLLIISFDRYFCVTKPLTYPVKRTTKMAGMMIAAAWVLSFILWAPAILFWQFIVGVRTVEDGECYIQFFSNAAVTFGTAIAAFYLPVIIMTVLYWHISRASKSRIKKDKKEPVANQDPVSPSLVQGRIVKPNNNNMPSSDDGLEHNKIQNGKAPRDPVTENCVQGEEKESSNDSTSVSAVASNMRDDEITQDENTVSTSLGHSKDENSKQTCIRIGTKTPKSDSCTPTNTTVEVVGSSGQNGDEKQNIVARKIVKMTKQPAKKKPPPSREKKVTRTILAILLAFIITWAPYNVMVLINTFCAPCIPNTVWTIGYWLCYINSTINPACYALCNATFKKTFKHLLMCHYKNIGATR

AC50 reported for this compound CN1C(=O)CN=C(c2ccccc2F)c2cc([N+](=O)[O-])ccc21 [FLUNITRAZEPAM] : > 10 µM

AC50 reported for this compound CCOc1cc2ncc(C#N)c(Nc3ccc(OCc4ccccn4)c(Cl)c3)c2cc1NC(=O)/C=C/CN(C)C [NERATINIB] : > 10 µM

###

Molecular target: UniProtKB Q99808
Sequence (Q99808 whole entry): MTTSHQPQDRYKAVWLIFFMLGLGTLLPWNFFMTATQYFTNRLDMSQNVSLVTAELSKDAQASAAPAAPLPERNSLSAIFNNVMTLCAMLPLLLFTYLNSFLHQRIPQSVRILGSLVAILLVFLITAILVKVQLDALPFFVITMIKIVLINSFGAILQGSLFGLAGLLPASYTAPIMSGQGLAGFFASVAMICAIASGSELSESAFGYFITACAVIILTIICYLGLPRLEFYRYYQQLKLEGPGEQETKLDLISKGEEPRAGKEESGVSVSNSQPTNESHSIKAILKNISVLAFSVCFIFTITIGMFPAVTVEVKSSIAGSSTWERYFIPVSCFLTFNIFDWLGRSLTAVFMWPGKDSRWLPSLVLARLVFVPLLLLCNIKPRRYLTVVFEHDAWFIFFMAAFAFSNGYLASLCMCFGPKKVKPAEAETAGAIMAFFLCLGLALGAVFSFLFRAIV
Where a SMILES comes first, the peptide text is derived from it.
measured.property: AC50

# compound, AC50
measured = [
    ("CO[C@@H]1[C@@H](OC(N)=O)[C@@H](O)[C@H](Oc2ccc3c(O)c(NC(=O)c4ccc(O)c(CC=C(C)C)c4)c(=O)oc3c2C)OC1(C)C", "> 30 µM"),
    ("Nc1c2c(nc3ccccc13)CCCC2O (stereo not drawn)", "> 30 µM"),
    ("CC(=O)OCC1=C(C(=O)O)N2C(=O)[C@@H](NC(=O)Cc3cccs3)[C@H]2SC1", "> 30 µM"),
    ("CCC[C@@]1(CCc2ccccc2)CC(O)=C([C@H](CC)c2cccc(NS(=O)(=O)c3ccc(C(F)(F)F)cn3)c2)C(=O)O1", "> 30 µM"),
    ("CCN(CCO)CCCC(C)Nc1ccnc2cc(Cl)ccc12 (stereo not drawn) [HYDROXYCHLOROQUINE]", "> 10 µM"),
]

AC50 reported for this compound NCC1(CC(=O)O)CCCCC1 : > 30 µM

AC50 reported for this compound COc1ccc(-n2nc(C(N)=O)c3c2C(=O)N(c2ccc(N4CCCCC4=O)cc2)CC3)cc1 : 26 µM

AC50 reported for this compound CNC1(C)C2CCC(C2)C1(C)C (stereo not drawn) : > 10 µM

AC50 reported for this compound CC(=O)SCC(Cc1ccccc1)C(=O)NCC(=O)OCc1ccccc1 (stereo not drawn) : > 30 µM

AC50 reported for this compound C[C@H](Nc1ncnc2[nH]cnc12)c1cc2cccc(Cl)c2c(=O)n1-c1ccccc1 : > 30 µM

AC50 reported for this compound C[C@H](N)C(=O)N[C@@H](CCC(N)=O)C(=O)O [ALANYL GLUTAMINE] (H-Ala-Gln-OH) : > 30 µM

AC50 reported for this compound CC(C)NCC(O)COc1ccc(CC(N)=O)cc1 (stereo not drawn) : > 30 µM

AC50 reported for this compound CC1=C(CC(=O)O)c2cc(F)ccc2/C1=C\c1ccc([S+](C)[O-])cc1 (stereo not drawn) : > 30 µM

AC50 reported for this compound CN1C(=O)CN=C(c2ccccc2F)c2cc([N+](=O)[O-])ccc21 : > 30 µM

###

Biological target: Neuropeptide Y receptor type 1 (Homo sapiens, UniProt P25929); further: assay procedure not described here
Sequence (P25929 whole entry): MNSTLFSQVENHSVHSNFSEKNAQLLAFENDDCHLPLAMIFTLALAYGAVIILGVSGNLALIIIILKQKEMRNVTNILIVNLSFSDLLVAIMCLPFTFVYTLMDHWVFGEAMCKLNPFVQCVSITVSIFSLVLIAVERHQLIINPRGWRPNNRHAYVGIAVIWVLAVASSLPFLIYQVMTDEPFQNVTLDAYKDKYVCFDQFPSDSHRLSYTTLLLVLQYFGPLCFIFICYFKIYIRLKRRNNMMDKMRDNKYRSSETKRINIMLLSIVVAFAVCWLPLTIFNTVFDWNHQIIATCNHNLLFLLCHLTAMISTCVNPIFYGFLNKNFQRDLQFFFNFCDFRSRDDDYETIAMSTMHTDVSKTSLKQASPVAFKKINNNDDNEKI
measured.property: AC50

Reference set, count: 4
# compound, AC50
measured = [
    ("Nc1ccc(S(=O)(=O)Nc2ncccn2)cc1", "> 10 µM"),
    ("COC(=O)CCc1ccc(OCC(O)CNC(C)C)cc1 (stereo unspecified)", "> 30 µM"),
    ("CCN1C(=O)NC(c2ccccc2)C1=O (stereo unspecified)", "> 30 µM"),
    ("CNCCc1ccccn1", "> 30 µM"),
]

Case Nc1nc(Cl)nc2c1ncn2[C@@H]1O[C@H](CO)[C@@H](O)[C@@H]1F , Neuropeptide Y receptor type 1 (Homo sapiens, UniProt P25929), AC50 recorded as > 30 µM

Case CCC1(c2ccccc2)C(=O)NCNC1=O , Neuropeptide Y receptor type 1 (Homo sapiens, UniProt P25929), AC50 recorded as > 10 µM

Case CN(C)CCOC(=O)C(c1ccccc1)C1(O)CCCC1 (stereo unspecified) [CYCLOPENTOLATE] , Neuropeptide Y receptor type 1 (Homo sapiens, UniProt P25929), AC50 recorded as > 10 µM

Case N=C(N)NC(=O)c1nc(Cl)c(N)nc1N [AMILORIDE] , Neuropeptide Y receptor type 1 (Homo sapiens, UniProt P25929), AC50 recorded as > 30 µM

Case CCN(C(C)=O)c1cccc(-c2ccnc3c(C#N)cnn23)c1 , Neuropeptide Y receptor type 1 (Homo sapiens, UniProt P25929), AC50 recorded as > 30 µM

###

Parameter AC50, tested on Adenosine receptor A3 (Homo sapiens, UniProt P0DMS8), listed per item. Further: assay procedure not described here.
Sequence (P0DMS8 whole entry): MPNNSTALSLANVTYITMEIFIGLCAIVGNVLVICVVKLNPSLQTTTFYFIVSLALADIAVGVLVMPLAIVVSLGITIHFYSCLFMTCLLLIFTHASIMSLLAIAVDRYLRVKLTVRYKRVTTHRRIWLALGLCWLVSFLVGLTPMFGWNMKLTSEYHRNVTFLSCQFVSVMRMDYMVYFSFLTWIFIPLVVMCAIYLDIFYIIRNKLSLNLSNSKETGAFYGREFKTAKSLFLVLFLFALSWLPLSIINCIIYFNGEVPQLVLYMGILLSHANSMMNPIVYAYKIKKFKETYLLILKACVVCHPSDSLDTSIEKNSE

# compound, AC50
data = [
    ("Cc1ncc(CO)c(CO)c1O [PYRIDOXINE]", "> 30 µM"),
    ("NCC1(CC(=O)O)CCCCC1 [GABAPENTIN]", "> 30 µM"),
    ("C[C@@H](CN1CC(=O)NC(=O)C1)N1CC(=O)NC(=O)C1 [DEXRAZOXANE]", "> 30 µM"),
    ("CO[C@H]1/C=C/O[C@@]2(C)Oc3c(C)c(O)c4c(c3C2=O)C2=NC3(CCN(CC(C)C)CC3)NC2=C(NC(=O)/C(C)=C\\C=C\\[C@H](C)[C@H](O)[C@@H](C)[C@@H](O)[C@@H](C)[C@H](OC(C)=O)[C@@H]1C)C4=O [RIFABUTIN]", "> 30 µM"),
    ("CC1=C(/C=C/C(C)=C\\C=C\\C(C)=C\\C(=O)O)C(C)(C)CCC1 [ALITRETINOIN]", "> 30 µM"),
    ("CC(C)Nc1cccnc1N1CCN(C(=O)c2cc3cc(NS(C)(=O)=O)ccc3[nH]2)CC1 [DELAVIRDINE]", "21.4 µM"),
    ("O=C(O)[C@H](O)[C@@H](O)[C@H](O)[C@H](O)CO [GLUCONIC ACID]", "> 30 µM"),
    ("CC(C)(Oc1ccc(Cl)cc1)C(=O)NC(=O)NCN1CCOCC1 [PLAFIBRIDE]", "> 30 µM"),
    ("CC(O)(CC(=O)O)CC(=O)O [MEGLUTOL]", "> 30 µM"),
    ("COc1cccc2c1C(=O)c1c(O)c3c(c(O)c1C2=O)C[C@@](O)(C(=O)CO)C[C@@H]3O[C@H]1C[C@H](N)[C@@H](O)[C@H](C)O1 [EPIRUBICIN]", "> 30 µM"),
]

AC50 reported for this compound CC(C)=CCC/C(C)=C/CC/C(C)=C/CC/C(C)=C/CC1=C(C)C(=O)c2ccccc2C1=O [MENATETRENONE] : 4.72 µM

AC50 reported for this compound Oc1ccc(OCc2ccccc2)cc1 [MONOBENZONE] : > 30 µM

AC50 reported for this compound CN1CCCC(CC2c3ccccc3Sc3ccccc32)C1 (configuration not stated) [METHIXENE] : > 30 µM

AC50 reported for this compound Cc1c(C)c2c(c(C)c1O)CCC(C)(COc1ccc(CC3SC(=O)NC3=O)cc1)O2 (configuration not stated) [TROGLITAZONE] : 3.29 µM

AC50 reported for this compound Nc1ccn(C[C@@H](CO)OCP(=O)(O)O)c(=O)n1 [CIDOFOVIR] : > 30 µM

AC50 reported for this compound CNC1(c2ccccc2Cl)CCCCC1=O (configuration not stated) [KETAMINE] : > 30 µM

AC50 reported for this compound C[C@@H]1O[C@@H](O[C@H]2C[C@@H](O)[C@]3(CO)[C@H]4[C@H](O)C[C@]5(C)[C@@H](C6=CC(=O)OC6)CC[C@]5(O)[C@@H]4CC[C@]3(O)C2)[C@H](O)[C@H](O)[C@H]1O [OUABAIN] : > 30 µM
